Target: UniProt Q9UGL1
Sequence (Q9UGL1 whole entry): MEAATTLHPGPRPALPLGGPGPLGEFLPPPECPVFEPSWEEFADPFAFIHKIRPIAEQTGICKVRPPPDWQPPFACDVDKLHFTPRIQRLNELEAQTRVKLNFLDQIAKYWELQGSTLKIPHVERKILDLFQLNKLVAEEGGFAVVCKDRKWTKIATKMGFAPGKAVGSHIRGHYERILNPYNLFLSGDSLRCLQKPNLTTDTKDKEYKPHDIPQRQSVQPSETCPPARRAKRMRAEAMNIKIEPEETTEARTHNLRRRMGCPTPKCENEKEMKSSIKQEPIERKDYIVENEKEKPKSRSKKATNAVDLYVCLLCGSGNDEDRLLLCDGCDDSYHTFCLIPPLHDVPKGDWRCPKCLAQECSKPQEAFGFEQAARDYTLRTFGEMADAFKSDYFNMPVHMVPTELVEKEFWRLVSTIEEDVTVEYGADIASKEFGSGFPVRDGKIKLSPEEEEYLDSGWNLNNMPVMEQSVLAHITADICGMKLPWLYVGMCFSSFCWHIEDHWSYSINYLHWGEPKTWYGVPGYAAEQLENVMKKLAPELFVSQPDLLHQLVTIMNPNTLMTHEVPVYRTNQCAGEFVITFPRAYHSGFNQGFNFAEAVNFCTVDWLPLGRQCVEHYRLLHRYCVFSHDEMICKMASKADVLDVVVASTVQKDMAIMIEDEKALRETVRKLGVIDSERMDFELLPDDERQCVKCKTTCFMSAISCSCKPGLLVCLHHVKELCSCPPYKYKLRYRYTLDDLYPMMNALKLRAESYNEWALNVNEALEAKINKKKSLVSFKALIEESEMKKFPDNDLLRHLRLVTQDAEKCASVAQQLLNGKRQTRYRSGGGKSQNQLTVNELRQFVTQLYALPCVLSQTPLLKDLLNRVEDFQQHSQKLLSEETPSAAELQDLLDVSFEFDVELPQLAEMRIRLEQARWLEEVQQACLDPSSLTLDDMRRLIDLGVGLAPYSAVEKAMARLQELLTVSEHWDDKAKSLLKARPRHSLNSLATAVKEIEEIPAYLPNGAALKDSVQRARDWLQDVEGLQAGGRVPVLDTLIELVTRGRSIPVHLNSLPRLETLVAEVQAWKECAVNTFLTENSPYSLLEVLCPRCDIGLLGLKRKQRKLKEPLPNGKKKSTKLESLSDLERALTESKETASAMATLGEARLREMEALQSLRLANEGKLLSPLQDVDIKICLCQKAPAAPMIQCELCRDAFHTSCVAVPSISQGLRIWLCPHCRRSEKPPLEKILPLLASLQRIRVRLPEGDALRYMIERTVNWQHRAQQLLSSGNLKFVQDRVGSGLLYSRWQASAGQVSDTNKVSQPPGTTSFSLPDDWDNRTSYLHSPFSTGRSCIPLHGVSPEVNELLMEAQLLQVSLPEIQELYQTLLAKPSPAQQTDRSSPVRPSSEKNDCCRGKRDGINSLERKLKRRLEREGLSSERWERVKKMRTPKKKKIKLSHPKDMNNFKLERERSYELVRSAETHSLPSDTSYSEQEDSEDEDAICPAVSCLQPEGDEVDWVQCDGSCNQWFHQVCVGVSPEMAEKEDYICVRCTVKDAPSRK
Assay: KDM5B TR-FRET Enzyme Activity Assay
Conditions: LANCE TR-FRET; 5 nM full-length recombinant KDM5B; ten point titration 100000 nM to 5.08 nM
recorded_metric: IC50 (nM)

Here are 3 molecules together with their reported answers.
{"columns": ["molecule", "recorded_metric", "data_value"],
 "data": [
  ["CC(C)c1c(-c2cnco2)[nH]c2ncnn2c1=O", "IC50", 193],
  ["COc1cccc(-c2[nH]c3ncnn3c(=O)c2C(C)C)c1", "IC50", 55.4],
  ["CC(C)c1c(-c2ccc3ncn(C4CC4)c3c2)[nH]c2ncnn2c1=O", "IC50", 21.3]
]}

[a] CC(C)c1c(-c2ccc(CO)cc2)[nH]c2ncnn2c1=O
[b] CC(C)n1cc(-c2[nH]c3ncnn3c(=O)c2C2CCC2)cn1
[c] CC(C)c1c(-c2ccc3c(c2)CCC(=O)N3)[nH]c2ncnn2c1=O
[d] CC(C)c1c(-c2cc3ccccc3n2C)[nH]c2ncnn2c1=O
// sort entries: IC50, high to low # list labels per requested ordering
d, b, a, c
(d: 1260 nM, b: 32.9 nM, a: 13.5 nM, c: 7.57 nM)

[P] CC(C)c1c(-c2cnn(C(C)C)c2)[nH]c2ncnn2c1=O
[Q] Cc1[nH]c2ncnn2c(=O)c1C(C)C
Select the item whose IC50 value is smaller, choosing between P and Q . API: response body contains the label of the selected item.
P
